target: MyD88^TIR (Homo sapiens, UniProt Q99836); construct: MyD88 (residues 148–296); 6xHis; made in house; host or cells: E. coli BL21 (DE3); assay: T‐Surf phage library (P8 and P3) selection against MyD88^TIR, four rounds, NGS read counts; type: binding; conditions: P8 library, selection against MyD88 TIR; rank by count after grouping
Sequence (Q99836 148-296): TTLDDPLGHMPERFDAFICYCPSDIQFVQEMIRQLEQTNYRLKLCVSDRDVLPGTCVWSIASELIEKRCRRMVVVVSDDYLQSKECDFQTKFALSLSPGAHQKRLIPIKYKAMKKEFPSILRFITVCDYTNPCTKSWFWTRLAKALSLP
MEASURED_PROPERTY: P8_MyD88 Rank (after)
Lab note: write the figure by itself, no unit.

{"columns": ["PRIMARY_SEQUENCE", "P8_MyD88 Rank (after)"],
 "data": [
  ["SIATLLYDQLSWLDIH", 201]
]}

So what does the record say about P8_MyD88 Rank (after) for `DPQGLGWFYERLVSLF` ?
223

So what does the record say about P8_MyD88 Rank (after) for `DPQDLDWFYERLVSL` ?
233

* * *

target: MAL^TIR (Homo sapiens, UniProt P58753); construct: MAL (residues 79–221); 6xHis; made in house; host or cells: E. coli BL21 (DE3); assay: T‐Surf phage library (P8 and P3) selection against MAL^TIR, four rounds, NGS read counts; type: binding; details: P3 library, selection against MAL, rank after grouping
Sequence (P58753 79-221): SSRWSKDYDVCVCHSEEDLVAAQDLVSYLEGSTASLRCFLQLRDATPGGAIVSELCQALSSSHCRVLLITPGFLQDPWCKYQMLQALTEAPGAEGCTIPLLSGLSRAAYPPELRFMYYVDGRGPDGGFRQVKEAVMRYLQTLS
MEASURED_PROPERTY: P3_MAL Rank (after)
Lab note: write the figure by itself, no unit.

// known answers, use as guide
{"columns": ["PRIMARY_SEQUENCE", "P3_MAL Rank (after)"],
 "data": [
  ["LKVESWRQSREKAGKL", 557],
  ["KGLTEIADLKGKKCDR", 529],
  ["VEPTQGRKQLGAVENA", 573],
  ["DHHLDLPLAKRLNRKFW", 492],
  ["SSFREGLGLLLELGKK", 535]
]}

So what does the record say about P3_MAL Rank (after) for `ESILNQLRRSSHSISN` ?
542

* * *

Target: MyD88^TIR (Homo sapiens, UniProt Q99836)
Construct: MyD88 (residues 148–296); 6xHis; made in house; host or cells: E. coli BL21 (DE3)
Assay: T‐Surf phage library (P8 and P3) selection against MyD88^TIR, four rounds, NGS read counts
Assay type: binding
Settings: P8_MyD88: rank by count before grouping
Protocol: T‐Surf libraries were screened against the immobilized TIR domains of two major human TLR adaptor proteins, MAL^TIR and MyD88^TIR, allowing cross‐species selection of TIR‐binding motifs with 190 946 TIR‐derived peptides in a single binding assay (Scheme 1). Enriched phage pools from the fourth round of selection were analyzed using NGS after barcoding the peptide‐coding regions of the phage pools. […]
// map Rank (before) to label using category 1 = under 300, category 2 = from 300 up to 2000, category 3 = 2000 and over

Reference set, count: 5
{"columns": ["PRIMARY_SEQUENCE", "LABEL_CLASS"],
 "data": [
  ["DPQDLDWFYERLVNLL", "category 2"],
  ["APQDLEWFYERLVSLIL", "category 3"],
  ["DPQDLGWFYERLLSLF", "category 3"],
  ["VASHWALEELRMIMDF", "category 1"],
  ["ELWVLRYLLPTLEEQQ", "category 1"]
]}

Which class holds `ELDFSHFWLFEGHATGEA` ?
category 1

* * *

biological target: MyD88^TIR (Homo sapiens, UniProt Q99836); construct: MyD88 (residues 148–296); 6xHis; made in house; host or cells: E. coli BL21 (DE3); experiment: T‐Surf phage library (P8 and P3) selection against MyD88^TIR, four rounds, NGS read counts; format: binding; conditions: P8_MyD88 pool: P8 T-Surf phage library, 4th round of selection against MyD88 TIR, share of NGS reads
MEASURED_PROPERTY: Population (%)
All answers are understood in %, so give the number only.

// known answers, use as guide
{"columns": ["PRIMARY_SEQUENCE", "Population, %"],
 "data": [
  ["NYGSNSWALNELLEIL", 0.00848],
  ["NFANSSWALDELWLIL", 0.0116],
  ["ELDFSHFWLFEGHATGEA", 0.0116],
  ["FIDFLFDAFETKGIFV", 0.0216]
]}

So what does the record say about Population for `VRHTFAGYLYDALNRL` ?
0.01

So what does the record say about Population for `QDLEQFYERLISRILQ` ?
0.0181

So what does the record say about Population for `DVLYWALTEAGIRVFR` ?
0.015

So what does the record say about Population for `SWYLDEVAKIIDAMKE` ?
0.0116

So what does the record say about Population for `WFLTAFRMAMDQVADT` ?
0.025

* * *

biological target: MAL^TIR (Homo sapiens, UniProt P58753); construct: MAL (residues 79–221); 6xHis; made in house; host or cells: E. coli BL21 (DE3); assay: T‐Surf phage library (P8 and P3) selection against MAL^TIR, four rounds, NGS read counts; assay type: binding; conditions: P8_MAL: rank by count after grouping
MEASURED_PROPERTY: Rank (after)
Lab note: write the figure by itself, no unit.

{"columns": ["PRIMARY_SEQUENCE", "TARGET_OR_TEST_SYSTEM", "NUMERIC_READOUT"],
 "data": [
  ["YTALTNSGFHAFSDKD", "MAL^TIR (Homo sapiens, UniProt P58753)", 456]
]}

Report Rank (after) for `HFSRIQLKSRLGETSF` tested on MAL^TIR (Homo sapiens, UniProt P58753).
444

Report Rank (after) for `WFYERLVSLIRRDTQV` tested on MAL^TIR (Homo sapiens, UniProt P58753).
106

Report Rank (after) for `RNFVAYLFQALAHKSI` tested on MAL^TIR (Homo sapiens, UniProt P58753).
183

* * *

biological target: MAL^TIR (Homo sapiens); construct: MAL (residues 79–221); 6xHis; made in house; host or cells: E. coli BL21 (DE3); assay: T‐Surf phage library (P8 and P3) selection against MAL^TIR, four rounds, NGS read counts; type: binding; settings: P8 library, selection against MAL, rank by count before grouping
MEASURED_PROPERTY: P8_MAL Rank (before)
Lab note: write the figure by itself, no unit.

{"columns": ["PRIMARY_SEQUENCE", "NUMERIC_READOUT"],
 "data": [
  ["AFFWAQLNSVLGNTTM", 1608],
  ["AFFWAQLKSVLRTQTM", 1633]
]}

From here, focus on the item given below.
So what does the record say about P8_MAL Rank (before) for `KRFEDRMNKVLEWKAA` ?
2674

* * *

biological target: MyD88^TIR (Homo sapiens, UniProt Q99836); construct: MyD88 (residues 148–296); 6xHis; made in house; host or cells: E. coli BL21 (DE3); experiment: T‐Surf phage library (P8 and P3) selection against MyD88^TIR, four rounds, NGS read counts; format: binding; details: P3_MyD88: rank by count after grouping
In this section we review reported Rank (after) values for a set of sequences.
Lab note: write the figure by itself, no unit.

// known answers, use as guide
{"columns": ["PRIMARY_SEQUENCE", "TARGET_OR_TEST_SYSTEM", "Rank (after)"],
 "data": [
  ["GFLYQALARDGFKIFM", "MyD88^TIR (Homo sapiens, UniProt Q99836)", 426],
  ["LVAHELSNKMKSFATI", "MyD88^TIR (Homo sapiens, UniProt Q99836)", 386],
  ["LKWEGPYFWRKMRYAL", "MyD88^TIR (Homo sapiens, UniProt Q99836)", 477],
  ["YAFTGHFQRYLVQRGV", "MyD88^TIR (Homo sapiens, UniProt Q99836)", 422],
  ["EWIREQLRPELQERLP", "MyD88^TIR (Homo sapiens, UniProt Q99836)", 179],
  ["LQNQWKLALTKVANLSGW", "MyD88^TIR (Homo sapiens, UniProt Q99836)", 98]
]}

So what does the record say about Rank (after) for `YLKWGYPWFWDRLRYAM` ?
97

So what does the record say about Rank (after) for `DHHLDLPRGKSFKPEILG` ?
451

So what does the record say about Rank (after) for `SSFRECLWRLEELSKK` ?
457

* * *

Target: MyD88^TIR (Homo sapiens, UniProt Q99836)
Construct: MyD88 (residues 148–296); 6xHis; made in house; host or cells: E. coli BL21 (DE3)
Test: T‐Surf phage library (P8 and P3) selection against MyD88^TIR, four rounds, NGS read counts
Format: binding
Conditions: P8 library, 4R selection against MyD88, rank after grouping
Description: T‐Surf libraries were screened against the immobilized TIR domains of two major human TLR adaptor proteins, MAL^TIR and MyD88^TIR, allowing cross‐species selection of TIR‐binding motifs with 190 946 TIR‐derived peptides in a single binding assay (Scheme 1). Enriched phage pools from the fourth round of selection were analyzed using NGS after barcoding the peptide‐coding regions of the phage pools. […]
MEASURED_PROPERTY: P8_MyD88 Rank (after)
Lab note: write the figure by itself, no unit.

// known answers, use as guide
{"columns": ["PRIMARY_SEQUENCE", "P8_MyD88 Rank (after)"],
 "data": [
  ["LGYQCIDWEYFVDIED", 644],
  ["WALNELLEILYANETM", 663]
]}

Report P8_MyD88 Rank (after) for `SSWWALEELAHIIE` tested on MyD88^TIR (Homo sapiens, UniProt Q99836).
634

Report P8_MyD88 Rank (after) for `DPQDQDRFYERLVSLF` tested on MyD88^TIR (Homo sapiens, UniProt Q99836).
591

Report P8_MyD88 Rank (after) for `YLLLSEFHSELALRPL` tested on MyD88^TIR (Homo sapiens, UniProt Q99836).
637

Report P8_MyD88 Rank (after) for `WTLNELQTILNILDIG` tested on MyD88^TIR (Homo sapiens, UniProt Q99836).
656

Report P8_MyD88 Rank (after) for `IDDDHLYAALVQAGIL` tested on MyD88^TIR (Homo sapiens, UniProt Q99836).
639

Report P8_MyD88 Rank (after) for `WFYERLVSLILRDTKV` tested on MyD88^TIR (Homo sapiens, UniProt Q99836).
615

Report P8_MyD88 Rank (after) for `DPQDLGCFYERLVSLF` tested on MyD88^TIR (Homo sapiens, UniProt Q99836).
611

Report P8_MyD88 Rank (after) for `DFLNWFYERLVSLFL` tested on MyD88^TIR (Homo sapiens, UniProt Q99836).
622

Report P8_MyD88 Rank (after) for `LGYHWVVWEYFVGIED` tested on MyD88^TIR (Homo sapiens, UniProt Q99836).
594
